assay: soluble on expression in E. coli; label from the status in PepcDB or PDB records
readoutType: soluble on expression in E. coli

Below: 5 sequences and their reported soluble on expression in E. coli.
residueCodes	soluble on expression in E. coli
MGHHHHHHSHMANSAGSMANSAGSKEFAYQNKVEELTSYAVQIANEFQSGQVDMRRLYPYQDILSTRKTQFIIFNEEQQPYFLPEGFHHPPREQLKKSEWNKLKKGQTVTIRADGRFDDEVSLVAQPIFVQNEFKGAVLLISPISGVEQMVNQ	not soluble
MQGEDTIMKTTELKLVYFSPTGTTRRVIMEAARQIDLKSVSFDLSVHKEKKPVLQFDETDFVLFGIPVYSGRVPETFLSYFETLKGNNTPAALIATYGCRAYEDALLELKTEVENRGFHVIGAGAFPTEHSIVRSIGLSRPNKADLKTISEFGIALNRRIKNEDLSALSIQVPGNTPYRKYAKTPLIPKADVSLCTECKACVKSCPAGAISAQDPKKTDKKKCISCLRCVRSCKQKARSVSSMKLSMAAKKLNKVCQSDKAADIFL	not soluble
MKLTPEMLTGKSREHLVNLPTTHSSNHFLQTQAVQAFQALQQSAAKNGFNLQPASSFRDFERQQLIWNSKFKGERKVHDDAGKALDLNQLDDWQKCQAILRWSALLRLVVIIGERKWIFLILIFCHEVNLYNWSLGNMKKAATSLN	not soluble
MANSAGSMAPKVFYISDGTAITAEVFGHAVLSQFPLEFESLTIPFVETLAKAENVKRQINDCFITTGERPLVFHSIVKPEIRDIIYSSEGLDYDFLNTFVAPLEQHLGVSASPVLHRTHGKANQGYEARIDAINFAMDNDDGQTMKHMDQADLILLGVSRCGKTPSSLYLSMQFGIKAANYPFTEDDMDNLKLPEALKRNKKKLFGLTIDPVRLHEIRQSRMENSRYSSLKQCRLEVKEVEMMFKRERIPYIDTTNHSVEEIATKILDVTGLERHMFLEHHHHHH	not soluble
ASHMQRIAVTAEGPGLDGLVDPRFGRAAGFVVVDAATMAAEYVDNGASQTLSHGAGINAAQVLAKSGAGVLLTGYVGPKAFQALQAAGIKVGQDLEGLTVRQAVQRFLDGQVPMAAGPNK	soluble

IN: Give recorded soluble on expression in E. coli. `MGSDKIHHHHHHMSDIIQFPNSSKKLYKDIKRAEQDQNYDLMYEYIVQYERQFELTEEIAMMKCRMLYETGSFLELREETIVLLKTGIQQYDALMIYYVKSLIGLGQYFEAVEVIHQIIDEVKDHKTRMALHPLKEFAKSKLIEDEKRLTQSLTDFDTLSMREQTHLILKLIDNGHFQFQETVLYILKSNTYSYNLISLMIEYLRFANCTQELTIEKYGMDVTFVPANLNGLEHTTLKEKVIPNVMETLNDGALHIAEEAHHIMNNHSIMIYPIDIETLFETNKWINAYECYFKNMLGLKCELQSIDAFNFIQQLDLNNNS`
OUT: not soluble

IN: Give recorded soluble on expression in E. coli. `MGSDKIHHHHHHMKENIEKLFQAIAQKNPIHSKYLKKIEFSQEDEEEFDKLISYYIQDGISIKEQCDCYLLILNDTLEETKFFIENGAYRYSSFDEVKDKVYFNESYMKQYMIGLALSSFVWIAHIKVRKYFSQYLQNFTPKTTYFEIGPGHGEYFARAVKSGKFSAFYGLDISPTSCELTQKMVKQQVGGLITKCDFLCQDFFTYDFDKKADLIVIGEVLEHVEKPLEFLKRSKELLSDGGEIFATIPINAPAIDHIYLFSHPDEVKDLIEKSGLKFKAYECFMANDYSLEKALKFKNAITMAVVLNA`
OUT: not soluble

IN: Give recorded soluble on expression in E. coli. `MCMAQRLNVNPTRMELSKLKKRLATATRGHKLLKDKQDELMRQFINLIKYNNQLRDEVEKELGSSLKDFVMARAVMSSEFLEEAIAYPKEEIEVEVGNKNIMSVNVPIMNFKRKLEGDEGSIYPYGFMNTSAELDDAISKLYGILPKLLELAEVEKSGQLMADEIEKTRRRVNALEYMTIPQLKETIRYIRMKLDENERSALTRLMKVKSMIEQRGLEHHHHHH`
OUT: not soluble

IN: Give recorded soluble on expression in E. coli. `GHMSYSITLRVYQTNRDRGYFSIVEKTVWHFANGGTWSEANGAHTLTMGGSGTSGMLRFMSTKGERITVAVGVHNYKRWCDVVTGLKPDETALVINPQYYNNGGRDYVREKQLAEYSVTSAIGTKVEVVYTVAEGNNLEANVIFS`
OUT: soluble

IN: Give recorded soluble on expression in E. coli. `MSRSQVTGKEFVLRCVFNDVSNMNDNDMRFGTVEEYFNVPWIFQIQRNNGNLGIYLRCTNLKDQEMWSIFSELELKLVSVYSDTRDQKCKIDMCFGHDSGKFYSSYGWSEFISWNELETSFMEAGSITVEARVLINKSIGFYTPKLMDFDEKMMEYSDIVVLVNGQRFYLLKKFLAFHSTFFESLFLGGFYEAKLAEVPLYDIDVDDFQKFLEVLYGFPVINVIVPINKLTLQQSEMLNACAQYAQTGSQKLTREANYVITEVRLF`
OUT: not soluble

IN: Give recorded soluble on expression in E. coli. `MSLNLSRIGLDLAKQVFQVHGVDRHEHVVCRRQLKRAQVRDFFRQLPPCLVAMEACGSAHYWARELRELGHTVRLIAPQFVKPYVKGDKHDAHDAEAICEAASRPSMRYVPVKSAEQQAVQSMHRVRSRLVRARTALCNEVRGLLGEFGLIATRRGRAATMALLETVMATEPAPLPAPMGELLRELKDELQTLEARIARLERQIQAHVRGDARIQRLLAVEGIGPISASAVAASAGDARQFRTGRQFAAWLGLVPRQHSTGGQQRLGNISKRGDTYLRTLLIHGARAVVRCCANKTDARSRWLQGLLQRRPANVVAVALANKNARILWALLSRETCYRPGEGHHHHHH`
OUT: not soluble

IN: Give recorded soluble on expression in E. coli. `MGSDKIHHHHHHMISVCIATYNGEKYLAEQLDSILLQVSEEDELIISDDGSTDHTLEILRTYAANYPQIQLLQGPGQGVIANFAFALTHTKGEVIFLADQDDVWLPNKVTTVTEYFETHPDIQVVISDLKIVDADLQVTNPSYFKFRKVKPGFWRNAIKSGYIGAGMAFRQEMKNVILPIPPEVPMHDMWIGLLAARKKQTGLIKEPLVLYRRHGANVSPIITKTSFQQKLNWRVNLLKALHQRLKEQR`
OUT: not soluble

###

experiment: soluble on expression in E. coli; label from the status in PepcDB or PDB records
readoutType: soluble on expression in E. coli

residueCodes	reportedValue
MGSDKIHHHHHHMKQKTIHIENLSIGYLGKTDVKVVADRINAGINCGELTCLLGANGVGKSTLLRTLSAFQPKLGGKIEIVGKEIDAYTDKELSTVISVVLTEKCDIRNMTVHELVGLGRSPYTDFWGTLRGEDKEVVERSIALVKIQNLAHRMVHTLSDGERQKVMIAKALAQETPVIFLDEPTAFLDFPSKVEMMQLLHRLSRQTNKTIFLSTHDLELALQIADKIWLMDKMNGVTIGTPEDLSLSGKLSSFFARKGIVFDLETGLFRVDNEYTSQIRLVGHGQKYAMVRKALQRNGILANRTVESDTYIETGDLKDGNGFILHPQEGEAVTLNSIEELLERLQAGSAERAV	not soluble
MGSDKIHHHHHHMEYQTRQWLEEALFDLLATKKSLHNISIAELSEHAQIARRTFYRYYHSKEQVLTNYLDRLIQDYIIELQTEKLTNFEDLVNLFFQYWSQYTESLKILQEANLLVLILQRYYDKLPAAYTTVMAPWHITNSDQRQISYDSRFIIGGLYSIFDEWLKTDHQTMPVNELVTTALNTIKRMKDS	not soluble
GFIDSHVHIESSMVSPKEFARAVISRGTTTIIVDPHEIANVCGMDGIKYMMEETKNMPLDVFFMLSSCVPATSFETSGAVLKAEDLKELIDSDRVLGLGEMMNYPGVLSREEEVLNKLKLAGSYNKIVDGHAPSVRGNELNAYNLAGIKTDHECSSIEEMNEKIRNGMYIAIREGSAAKNLDILIKGVNAKNERRIMFCADDRHPDDILKSGHMDNCVRRAIYNGIENTAAIRMASINAAECYKLERVGAIAPSYKADLVVLEDLKDVKVNMVIKSGEVVFKDNKHLKDMGSKSDI	not soluble

###

test: soluble on expression in E. coli; label from the status in PepcDB or PDB records
readoutType: soluble on expression in E. coli

residueCodes	readoutType	reportedValue
MAAESQLKRVIETLRRLGIEEVLKLERRDPQYRAVCNVVKRHGETVGSRLAMLNALISYRLTGKGEEHWEYFGKYFSQLEVIDLCRDFLKYIETSPFLKIGVEARKKRALKACDYVPNLEDLGLTLRQLSHIVGARREQKTLVFTIKILNYAYMCSRGVNRVLPFDIPIPVDYRVARLTWCAGLIDFPPEEALRRYEAVQKIWDAVARETGIPPLHLDTLLWLAGRAVLYGENLHGVPKEVIALFQWRGGCRPPSE	soluble on expression in E. coli	soluble
MSLIILDNHFHVDPNHGLFLEAVKQFQRAGGTHLIVVYKTAHDYGFPGLKAEDFMKAMDFHIELVEKINRETQVKAYAVVGVHPAEFDYLARNKGLEFARNEVMKALEYAQKLCLEGKAVGIGEVGRPHYEVPQQIWEVSIEIMKYAMELAKDADCAVQLHTESFNEEKFRELGEYIREVGIKPYKVVKHFSPPLVNVAKEVGVFPSIIASKKNIEEAIKQGNRFLMETDYIDDKRRPGAVLGPKTVPKRTKEFLQRGIFTEEDVYKIHVENPKKVYGIEIEGHHHHHH	soluble on expression in E. coli	soluble
MGSSHHHHHHSSGLVPRGSHMNIGDTLNHSLLNHPLMLSGSTCKTLSDYTNQWLVLYFYPKDNTPGSSTEGLEFNLLLPQFEQINATVLGVSRDSVKSHDSFCAKQGFTFPLVSDSDAILCKAFDVIKEKTMYGRQVIGIERSTFLIGPTHRIVEAWRQVKVPGHAEEVLNKLKAHAEQ	soluble on expression in E. coli	soluble
